Documented composite z-score across a set of molecules
Experiment: small-molecule binders of probe aInhba, primary screen, biochemical, small-molecule microarray, 635/667 nm fluorescence (AID 1148);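 further: score merges 667nm spot fluorescence with signal-to-noise for antibody binding to printed compounds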
Conditions: higher = more signal
Keep it simple and answer with nothing but the number.

Past entries and their recorded results:
MOLECULE | composite z-score
COC(=O)C1=CC(CCCO)=CC(C2CC2)N(Cc2cc3c(cc2Br)OCO3)C=C1C(=O)OC (stereo not given) | 0.143
COCCOC(=O)N1C(=O)[C@@]2(c3cc(C#CC4(O)CCCCCC4)ccc31)[C@H](c1ccc(O)cc1)N1[C@H](c3ccccc3)[C@H](c3ccccc3)OC(=O)[C@H]1[C@@H]2C(N)=O | 0.101
COCCCNC(=O)[C@@]1(Cc2ccccc2)N=C(c2ccc(OCCCO)cc2)O[C@H]1c1ccccc1N=[N+]=[N-] | 0.49

Lab book: composite z-score of CC1CC/C=C\[C@H]2OC34C=CCN(C(C)C)C(=O)[C@H]3N(C(CO)C(C)C)C(=O)[C@@H]4C2C(=O)O1 (stereo not given in full) noted as -0.133

The measured composite z-score associated with CC(=O)OC(C/C=C\B1OC(C)(C)C(C)(C)O1)c1ccccc1 (stereo not given) reads -0.284

The reported value for O=C(NC1CC1)[C@@H]1c2ccccc2C(=O)N(Cc2ccccc2C(F)(F)F)[C@H]1c1ccc(CO)cc1 in terms of composite z-score is 0.0439
